Please go through the items and note down their MIC.
# System: Klebsiella pneumoniae ATCC 10031
# TEST METHOD NOTES: MIC, Klebsiella pneumoniae ATCC 10031
# Format: cell-based
# CONDITION DETAILS: ATCC10031; Klebsiella pneumoniae ATCC 10031; read-out: MIC
Express it in µg/mL; write the number only.

Problem: Answer with reported MIC of CCC1OC(=O)CC(O)C(C)C(OC2OC(C)C(O)C(N(C)C)C2O)C(CC=O)CC(C)C(=O)C=CC(C)=CC1COc1cccc([N+](=O)[O-])c1 (stereo not drawn)
Result: 1.6

Problem: Find the measured MIC of CCC1OC(=O)CC(O)C(C)C(OC2OC(C)C(O)C(N(C)C)C2O)C(CC=O)CC(C)C(=O)C=CC(C)=CC1CSCc1ccccc1 (stereo not drawn) and report it.
Result: 1.6

Problem: Consider the compound CCC1OC(=O)CC(O)C(C)C(OC2OC(C)C(O)C(N(C)C)C2O)C(CC=O)CC(C)C(=O)C=CC(C)=CC1CSCCc1ccccc1 (stereo not drawn) . State its measured MIC.
Result: 3.1

Problem: Quick one: give measured MIC for CCC1OC(=O)CC(O)C(C)C(OC2OC(C)C(O)C(N(C)C)C2O)C(CC=O)CC(C)C(=O)C=CC(C)=CC1COc1ccc(Br)cc1 (stereo not drawn)
Result: 3.1

Problem: Annotate the compound CCC1OC(=O)CC(O)C(C)C(OC2OC(C)C(O)C(N(C)C)C2O)C(CC=O)CC(C)C(=O)C=CC(C)=CC1COc1ccc(Cl)cc1Cl (stereo not drawn) with its measured MIC.
Result: 3.1

====

Please provide measured MIC for the entries that follow.
# Tested on: Klebsiella pneumoniae ATCC 10031
# TEST METHOD NOTES: MIC, Klebsiella pneumoniae ATCC 10031
# Format: cell-based
# CONDITION DETAILS: ATCC10031; Klebsiella pneumoniae ATCC 10031; read-out: MIC
Write the number in µg/mL without appending the unit.

Problem: Check the records and state MIC for CCC1OC(=O)CC(O)C(C)C(OC2OC(C)C(O)C(N(C)C)C2O)C(CC=O)CC(C)C(=O)C=CC(C)=CC1COc1ccc(OC)cc1 (stereo not drawn)
Result: 3.1

Problem: Could you please provide reported MIC for CCC1OC(=O)CC(O)C(C)C(OC2OC(C)C(O)C(N(C)C)C2O)C(CC=O)CC(C)C(=O)C=CC(C)=CC1COc1ccc(Cl)cc1 (stereo not drawn) ? Thanks!
Result: 3.1

Problem: Kindly indicate its recorded MIC. Item: CCC1OC(=O)CC(O)C(C)C(OC2OC(C)C(O)C(N(C)C)C2O)C(CC=O)CC(C)C(=O)C=CC(C)=CC1COc1cccc(N(CC)CC)c1 (stereo not drawn)
Result: 3.1

Problem: Entry CCC1OC(=O)CC(O)C(C)C(OC2OC(C)C(O)C(N(C)C)C2O)C(CC=O)CC(C)C(=O)C=CC(C)=CC1COc1ccccc1 (stereo not drawn) needs its MIC filled in; supply it.
Result: 1.6

Problem: Quick one: give measured MIC for CCC1OC(=O)CC(O)C(C)C(OC2OC(C)C(O)C(N(C)C)C2O)C(CC=O)CC(C)C(=O)C=CC(C)=CC1CSC(C)c1ccccc1 (stereo not drawn)
Result: 3.1

Problem: Using the record for CCC1OC(=O)CC(O)C(C)C(OC2OC(C)C(O)C(N(C)C)C2O)C(CC=O)CC(C)C(=O)C=CC(C)=CC1CSc1ccccc1 (stereo not drawn) , state its measured MIC.
Result: 1.6

====

Consider the following compounds; for each one, report its MIC.
# System: Salmonella typhosa H901
# TEST METHOD NOTES: MIC, Salmonella typhosa H901
# Type: cell-based
# CONDITION DETAILS: Salmonella enterica, TYPHOSA

Problem: Retrieve MIC measured for CCc1ccc(OCC2C=C(C)C=CC(=O)C(C)CC(CC=O)C(OC3OC(C)C(O)C(N(C)C)C3O)C(C)C(O)CC(=O)OC2CC)cc1 (stereo not drawn) and print it.
Result: > 100 µg/mL

Problem: Give recorded MIC. CC[C@H]1OC(=O)C[C@@H](O)[C@H](C)[C@@H](O[C@@H]2O[C@H](C)[C@@H](O[C@H]3C[C@@](C)(O)[C@@H](O)[C@H](C)O3)[C@H](N(C)C)[C@H]2O)[C@@H](CC=O)C[C@@H](C)C(=O)/C=C/C(C)=C/[C@@H]1CO[C@@H]1O[C@H](C)[C@@H](O)[C@@H](OC)[C@H]1OC [TS, tylosin, reference compound]
Result: > 100 µg/mL

Problem: Provide one value: measured MIC of CCC1OC(=O)CC(O)C(C)C(OC2OC(C)C(O)C(N(C)C)C2O)C(CC=O)CC(C)C(=O)C=CC(C)=CC1COc1cccc([N+](=O)[O-])c1 (stereo not drawn)
Result: 100 µg/mL

====

# System: Staphylococcus epidermis sp-al-1
# TEST METHOD NOTES: MIC, Staphylococcus epidermis sp-al-1
# Type: cell-based
# CONDITION DETAILS: SPAL1; Staphylococcus epidermis sp-al-1; read-out: MIC
Give MIC for every item shown.

Problem: GET MIC | system: Staphylococcus epidermis sp-al-1 | item: CCC1OC(=O)CC(O)C(C)C(OC2OC(C)C(O)C(N(C)C)C2O)C(CC=O)CC(C)C(=O)C=CC(C)=CC1CSCc1ccccc1 (stereo not drawn) [SCH2 C6 H5]
Result: ≤ 0.05 µg/mL

Problem: Please respond with reported MIC (system Staphylococcus epidermis sp-al-1) for CCC1OC(=O)CC(O)C(C)C(OC2OC(C)C(O)C(N(C)C)C2O)C(CC=O)CC(C)C(=O)C=CC(C)=CC1COCc1ccccc1 (stereo not drawn) [OCH 2 C6 H5, 23-O-benzyl-23-demycinosyldesmycosin] .
Result: ≤ 0.05 µg/mL

Problem: Write down the reported MIC (system: Staphylococcus epidermis sp-al-1) of CCC1OC(=O)CC(O)C(C)C(OC2OC(C)C(O)C(N(C)C)C2O)C(CC=O)CC(C)C(=O)C=CC(C)=CC1CSc1ccccc1 (stereo not drawn) [SC6 H5]
Result: ≤ 0.05 µg/mL

These entries and their values trace back to patent US4515941A.
